Target: T1, Avi/His-HuIL18BPa (recombinant human IL-18BP isoform A with Avi and poly-His tags) (human, biotinylated with BirA on the Avi tag in some assays)
T1 chain: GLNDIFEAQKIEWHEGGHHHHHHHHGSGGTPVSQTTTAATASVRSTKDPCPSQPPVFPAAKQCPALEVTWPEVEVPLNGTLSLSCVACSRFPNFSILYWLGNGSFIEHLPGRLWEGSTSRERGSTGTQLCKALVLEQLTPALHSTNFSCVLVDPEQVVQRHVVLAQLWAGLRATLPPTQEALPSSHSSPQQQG
Assay: cell-based or functional assay
measurement_type: Fold change of IFNγ at 10 µg/ml vs baseline, human PBMC (fold)
Respond with the bare value in fold.

Query string: Param item = anti-IL18BP antibody BP-16 (antibody, human IgG1, V domains shown) VH: QVQLVQSGAEVKKPGASVKVSCKASGYTFTTYDINWVRQAPGQGLEWMGIIGSYGGATSYAQKFQGRVTMTRDTSTSTVYMELSSLRSEDTAVYYCATAEEELRFDYWGQGTLVTVSS VL: DIQMTQSPSSLSASVGDRVTITCRASQSISSYLNWYQQKPGKAPKLLIYKASTLHNGVPSRFSGSGSGTDFTLTISNLQPEDFATYYCQQAISFPLTFGGGTKVEIK ; retrieve measured Fold change of IFNγ at 10 µg/ml vs baseline, human PBMC.
Result string: 238

Query string: Param item = anti-IL18BP antibody BP-12 (antibody, human IgG1, V domains shown) VH: EVQLQQSGPELVKPGASVKMSCKTSGYTFTEYTMHWVKQSHGKSLEWIGGVNPNNGGTTYNQKFRDKATLTVDKSSSTTYMEVRTLTSDDSAVYYCAPLWRVFDYWGQGTTLTVSS VL: DIVMTQSHKFMSSSVGDRVSITCKASQDVGTAVAWYQQKPGQSPKLLIYWASTRHTGVPDRFTGSGSGTDFTLTISNVQSEDLADYFCHQFSRYPLTFGAGTKLELK ; retrieve measured Fold change of IFNγ at 10 µg/ml vs baseline, human PBMC.
Result string: 10.3

Query string: Param item = anti-IL18BP antibody BP-06 (antibody, human IgG1, V domains shown) VH: QIQLQQSGPELVKPGASVKISCKASGYTFTDYYLNWVKQTPGQGLEWIGWIYPGSGNTKYTEKFKDKASLTVDTSSNTAYMQLSSLTSDDTAVYFCARRGVAWFAYWGQGTLVTVSA VL: DIKMTQSPSSIYASLGERVTITCKASQDINSYLSWFQQKPGKSPKTLIHRANRLVDGVPSRFSGSGSGQDYSLTISSLEYEDMGIYYCLQHDDFPPTFGAGTNLELK ; retrieve measured Fold change of IFNγ at 10 µg/ml vs baseline, human PBMC.
Result string: 10.9
